Values from ChEMBL document CHEMBL4828744

# protocolText: Cmax in Sprague-Dawley rat at 5 mg/kg, ig measured for 24 hrs by LC-MS/MS analysis
# Type: ADME, organism-based
# Design: route intragastric, time 24 hrs, dose 5 mg/kg
# recordedConditions: in vivo, po
Please note: Cmax exactly at 40 ng/mL is not fulfilled. Only values below 40 ng/mL get fulfilled.

(Q) Please state whether Cmax is below 40 ng/mL for CN1CCC(=C(F)c2cccc(NC(=O)c3c(F)cc(F)cc3F)n2)CC1
(A) not fulfilled

(Q) Same thing, different compound: CN1CCC(=C(F)c2cccc(NC(=O)c3ccc(F)cn3)n2)CC1
(A) fulfilled

(Q) Same thing, different compound: CN1CCC(=C(F)c2cccc(NC(=O)c3ccc(F)cc3F)n2)CC1
(A) fulfilled

(Q) Same thing, different compound: CN1CCC(=C(F)c2cccc(NC(=O)c3ccc(Cl)cc3)n2)CC1
(A) fulfilled

(Q) Same thing, different compound: CN1CCC(=C(F)c2cccc(NC(=O)c3ccc(F)cc3)n2)CC1
(A) fulfilled

(Q) Same thing, different compound: CN1CCC(C(=O)c2cccc(NC(=O)c3c(F)cc(F)cc3F)n2)CC1 [LASMIDITAN]
(A) not fulfilled

(Q) Same thing, different compound: CN1CCC(=C(F)c2cccc(NC(=O)c3ccc(Cl)cc3F)n2)CC1
(A) fulfilled
